Test system: Staphylococcus aureus
Experiment: Antibacterial activity against Staphylococcus aureus ATCC 25825 after 24 hrs by twofold serial dilution method
Type: functional
Settings: Staphylococcus aureus, ATCC 25825, 24 h
quantity_measured: MIC (mg/L)
Express your answer in mg/L, writing the number without its unit.

> print(dat)
                              line.notation  quantity.measured  measurement.units  quantitative.result
1  C[C@@H]1/C(=N/NC(=S)Nc2ccccc2)C[C@@H](c2ccccc2)O[C@H]1c1ccccc1                MIC               mg/L                   50
2  CC[C@@H]1/C(=N/NC(=S)Nc2ccccc2)C[C@@H](c2ccccc2)O[C@H]1c1ccccc1                MIC               mg/L                   50
3  C[C@@H]1/C(=N\NC(N)=S)[C@@H](C)[C@H](c2ccc(F)cc2)O[C@@H]1c1ccc(F)cc1                MIC               mg/L                   50
4  C[C@@H]1/C(=N\NC(N)=S)[C@@H](C)[C@H](c2ccc(Br)cc2)O[C@@H]1c1ccc(Br)cc1                MIC               mg/L                   25

Below: the item to evaluate.
Identify MIC associated with the molecule "COc1ccc([C@H]2O[C@@H](c3ccc(OC)cc3)[C@H](C)/C(=N/NC(N)=S)[C@H]2C)cc1"
12.5

* * *

Tested on: Staphylococcus aureus
Assay: Antibacterial activity against Staphylococcus aureus ATCC 25825 after 24 hrs by twofold serial dilution method
Format: functional
Conditions: Staphylococcus aureus, ATCC 25825, 24 h
Entries and their MIC
Express your answer in µg/mL, writing the number without its unit.

The cases that follow already have their MIC on record.
> print(dat)
                              line.notation  quantity.measured  quantitative.result
1  C[C@@H]1/C(=N\NC(=S)Nc2ccccc2)[C@@H](C)[C@H](c2ccc(Br)cc2)O[C@@H]1c1ccc(Br)cc1                MIC                   25
2  C[C@@H]1/C(=N\NC(=S)Nc2ccccc2)[C@@H](C)[C@H](c2cccc(Cl)c2)O[C@@H]1c1cccc(Cl)c1                MIC                   50

Identify MIC associated with the molecule "C[C@@H]1/C(=N\NC(=S)Nc2ccccc2)[C@@H](C)[C@H](c2ccc(Cl)cc2)O[C@@H]1c1ccc(Cl)cc1"
25

Identify MIC associated with the molecule "COc1cccc([C@H]2O[C@@H](c3cccc(OC)c3)[C@H](C)/C(=N/NC(=S)Nc3ccccc3)[C@H]2C)c1"
12.5

* * *

Tested on: Klebsiella pneumoniae
Experiment: Antibacterial activity against Klebsiella pneumoniae ATCC 15490 after 24 hrs by twofold serial dilution method
Type: functional
Conditions: Klebsiella pneumoniae, ATCC 15490, 24 h
quantity_measured: MIC (mg/L)
Express your answer in mg/L, writing the number without its unit.

> print(dat)
                               line.notation  measurement.units  quantitative.result
 1  CC[C@@H]1/C(=N/NC(N)=S)C[C@@H](c2ccccc2)O[C@H]1c1ccccc1               mg/L                  100
 2  C[C@@H]1/C(=N\NC(=S)Nc2ccccc2)[C@@H](C)[C@H](c2cccc(Cl)c2)O[C@@H]1c1cccc(Cl)c1               mg/L                 12.5
 3  CC[C@@H]1/C(=N/NC(=S)Nc2ccccc2)C[C@@H](c2ccccc2)O[C@H]1c1ccccc1               mg/L                  100
 4  COc1ccc([C@H]2O[C@@H](c3ccc(OC)cc3)[C@H](C)/C(=N/NC(N)=S)[C@H]2C)cc1               mg/L                   50
 5  C[C@@H]1/C(=N\NC(=S)Nc2ccccc2)[C@@H](C)[C@H](c2ccc(Cl)cc2)O[C@@H]1c1ccc(Cl)cc1               mg/L                 12.5
 6  C[C@@H]1/C(=N\NC(=S)Nc2ccccc2)[C@@H](C)[C@H](c2ccccc2Cl)O[C@@H]1c1ccccc1Cl               mg/L                 12.5
 7  COc1ccc([C@H]2O[C@@H](c3ccc(OC)cc3)[C@H](C)/C(=N/NC(=S)Nc3ccccc3)[C@H]2C)cc1               mg/L                   25
 8  Cc1ccc([C@H]2O[C@@H](c3ccc(C)cc3)[C@H](C)/C(=N/NC(N)=S)[C@H]2C)cc1               mg/L                  100
 9  C[C@@H]1/C(=N/NC(N)=S)C[C@@H](c2ccccc2)O[C@H]1c1ccccc1               mg/L                  100
10  C[C@@H]1/C(=N\NC(=S)Nc2ccccc2)[C@@H](C)[C@H](c2ccc(Br)cc2)O[C@@H]1c1ccc(Br)cc1               mg/L                   25

Identify MIC associated with the compound "C[C@@H]1/C(=N\NC(N)=S)[C@@H](C)[C@H](c2ccc(F)cc2)O[C@@H]1c1ccc(F)cc1"
50

Identify MIC associated with the compound "COc1cccc([C@H]2O[C@@H](c3cccc(OC)c3)[C@H](C)/C(=N/NC(=S)Nc3ccccc3)[C@H]2C)c1"
100

Identify MIC associated with the compound "C[C@@H]1/C(=N\NC(N)=S)[C@@H](C)[C@H](c2ccc(Br)cc2)O[C@@H]1c1ccc(Br)cc1"
25

Identify MIC associated with the compound "C[C@@H]1/C(=N\NC(N)=S)[C@@H](C)[C@H](c2ccc(Cl)cc2)O[C@@H]1c1ccc(Cl)cc1"
25

Identify MIC associated with the compound "C[C@@H]1/C(=N\NC(=S)Nc2ccccc2)[C@@H](C)[C@H](c2ccc(F)cc2)O[C@@H]1c1ccc(F)cc1"
50

Identify MIC associated with the compound "C[C@@H]1/C(=N/NC(=S)Nc2ccccc2)C[C@@H](c2ccccc2)O[C@H]1c1ccccc1"
100

* * *

System: Pseudomonas aeruginosa
Experiment: Antibacterial activity against Pseudomonas aeruginosa ATCC 10145 after 24 hrs by twofold serial dilution method
Format: functional
Entries and their -logMIC
Note: the reply should be a number with no unit written.

> print(dat)
                              line.notation  quantitative.result
1  Cc1ccc([C@H]2O[C@@H](c3ccc(C)cc3)[C@H](C)/C(=N/NC(N)=S)[C@H]2C)cc1                    4
2  C[C@@H]1/C(=N\NC(N)=S)[C@@H](C)[C@H](c2ccc(Br)cc2)O[C@@H]1c1ccc(Br)cc1                4.903
3  COc1ccc([C@H]2O[C@@H](c3ccc(OC)cc3)[C@H](C)/C(=N/NC(=S)Nc3ccccc3)[C@H]2C)cc1                4.602
4  CC[C@@H]1/C(=N/NC(N)=S)C[C@@H](c2ccccc2)O[C@H]1c1ccccc1                    4

Report -logMIC under test system Pseudomonas aeruginosa for "C[C@@H]1/C(=N\NC(=S)Nc2ccccc2)[C@@H](C)[C@H](c2ccc(Br)cc2)O[C@@H]1c1ccc(Br)cc1" .
5.204

Report -logMIC under test system Pseudomonas aeruginosa for "C[C@@H]1/C(=N\NC(N)=S)[C@@H](C)[C@H](c2ccc(Cl)cc2)O[C@@H]1c1ccc(Cl)cc1" .
4.301

Report -logMIC under test system Pseudomonas aeruginosa for "C[C@@H]1/C(=N/NC(N)=S)C[C@@H](c2ccccc2)O[C@H]1c1ccccc1" .
3.698

Report -logMIC under test system Pseudomonas aeruginosa for "C[C@@H]1/C(=N\NC(=S)Nc2ccccc2)[C@@H](C)[C@H](c2ccc(F)cc2)O[C@@H]1c1ccc(F)cc1" .
4.903

* * *

Test system: Staphylococcus aureus
Assay: Antibacterial activity against Staphylococcus aureus ATCC 25825 after 24 hrs by twofold serial dilution method
Assay type: functional
Conditions: Staphylococcus aureus, ATCC 25825, 24 h
Entries and their MIC
Express your answer in µg/mL, writing the number without its unit.

The cases that follow already have their MIC on record.
> print(dat)
                              line.notation           assay.target  measurement.units  quantitative.result
1  C[C@@H]1/C(=N\NC(=S)Nc2ccccc2)[C@@H](C)[C@H](c2ccccc2Cl)O[C@@H]1c1ccccc1Cl  Staphylococcus aureus              µg/mL                   50
2  Cc1ccc([C@H]2O[C@@H](c3ccc(C)cc3)[C@H](C)/C(=N/NC(N)=S)[C@H]2C)cc1  Staphylococcus aureus              µg/mL                   50
3  C[C@@H]1/C(=N\NC(N)=S)[C@@H](C)[C@H](c2ccc(Cl)cc2)O[C@@H]1c1ccc(Cl)cc1  Staphylococcus aureus              µg/mL                   25
4  CC[C@@H]1/C(=N/NC(N)=S)C[C@@H](c2ccccc2)O[C@H]1c1ccccc1  Staphylococcus aureus              µg/mL                   50
5  COc1ccc([C@H]2O[C@@H](c3ccc(OC)cc3)[C@H](C)/C(=N/NC(=S)Nc3ccccc3)[C@H]2C)cc1  Staphylococcus aureus              µg/mL                 12.5

Identify MIC associated with the compound "Cc1ccc([C@H]2O[C@@H](c3ccc(C)cc3)[C@H](C)/C(=N/NC(=S)Nc3ccccc3)[C@H]2C)cc1"
100

Identify MIC associated with the compound "C[C@@H]1/C(=N\NC(=S)Nc2ccccc2)[C@@H](C)[C@H](c2ccc(F)cc2)O[C@@H]1c1ccc(F)cc1"
50

Identify MIC associated with the compound "C[C@@H]1/C(=N/NC(N)=S)C[C@@H](c2ccccc2)O[C@H]1c1ccccc1"
100

Where do these numbers come from? They come from ChEMBL document CHEMBL1759834.
